Molecular target: Cathepsin B (Homo sapiens)
Assay: Inhibition of human cathepsin B
endpoint_name: IC50

Q: # query: IC50 of entry CS(=O)(=O)N1CCc2c(c(-c3ccc(Cl)c(C#Cc4ccc(Cl)cc4)c3)nn2CCCN2CCOCC2)C1
Ans: > 20 µM

---

Biological target: Procathepsin L (Homo sapiens, UniProt P07711)
Sequence (P07711 whole entry): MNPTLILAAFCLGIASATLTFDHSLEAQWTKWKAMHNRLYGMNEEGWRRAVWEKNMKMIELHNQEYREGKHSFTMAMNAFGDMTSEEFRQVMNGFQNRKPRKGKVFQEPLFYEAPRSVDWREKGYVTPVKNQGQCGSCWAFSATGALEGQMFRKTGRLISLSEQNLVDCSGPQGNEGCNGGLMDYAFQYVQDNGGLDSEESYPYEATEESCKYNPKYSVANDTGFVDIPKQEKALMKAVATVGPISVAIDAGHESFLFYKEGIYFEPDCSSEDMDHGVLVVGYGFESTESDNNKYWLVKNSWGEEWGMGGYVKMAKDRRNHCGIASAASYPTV
pIC50: −log10 of the molar value.
endpoint_name: pIC50

Q: # query: pIC50 of entry CS(=O)(=O)N1CCc2c(c(-c3ccc(Cl)c(C#Cc4ccc(Cl)cc4)c3)nn2CCCN2CCOCC2)C1
Ans: < 4.70

---

Experiment: Bioavailability in Sprague-Dawley rat at 2 mg/kg, iv
Type: ADME, organism-based
Settings: in vivo
endpoint_name: bioavailability (%)
Answers are plain numbers, in %.

Q: # query: bioavailability of entry CS(=O)(=O)N1CCc2c(c(-c3ccc(Cl)c(C#Cc4ccc(Cl)cc4)c3)nn2CCCN2CCOCC2)C1
Ans: 21
